// data source = ChEMBL document CHEMBL1201862

# Tested on: SNB-19
# assay name: NCI tumour cell line growth inhibition, 48 h
Activity calls are given as the source filed them. No stated cut-off is given here; in the data, active = GI50 up to about 1.1 µM and inactive = higher.
Measured GI50, listed per entry.

Answered examples (2):
>>> observed_result("Nc1cccc2c1-c1c(cccc1[N+](=O)[O-])C2=O")
"> 100 µM (inactive)"
>>> observed_result("COC(=O)CCCC(=O)NC1=C(Nc2ccccc2)C(=O)c2ccccc2C1=O")
"18.2 µM (inactive)"

Notebook: `O[C@@H]1C=C[C@]23CCN(Cc4cc5c(cc42)OCO5)[C@@H]3C1` , GI50 read as 43.1 µM (inactive)

Notebook: `CCCCCCCCc1cc2c(O)c(c1)Cc1cc(CCCCCCCC)cc(c1O)Cc1cc(CCCCCCCC)cc(c1O)Cc1cc(CCCCCCCC)cc(c1O)Cc1cc(CCCCCCCC)cc(c1O)Cc1cc(CCCCCCCC)cc(c1O)C2` , GI50 read as > 100 µM (inactive)

###

# System: RXF 393
# assay name: NCI tumour cell line growth inhibition, 48 h
Calls of active or inactive are those of the source. Rule as the data show it: active = GI50 up to about 1.1 µM and inactive = higher. Numbered stars: 1 amine (or outer) side, 2 acyl side, 3 side chain; on linkers, the order of the positions; unused ones are H or OH. Bridge positions count the residues as written; N and C are the ends. Square brackets hold non-standard residues; d marks the D form. Peptide text beside a SMILES is read from it. I, II: the chains in the order shown. Actinocin(9to1) = Cc1c2oc3c(C)ccc(C(=O)[*:1])c3nc-2c(C(=O)[*:2])c(N)c1=O; X48 = O=C1CC(C(=O)[*:2])N([*:1])C1; NMeV = CN[CH](C(=O)O)C(C)C; Sar = CNCC(=O)O
Tick one outcome: active, inactive

Previously resolved entries follow.
>>> class_assignment("O=C1CCC2(c3ccc(F)cc3)Nc3cc(Cl)ccc3N12 (stereo not drawn)")
"inactive"
>>> class_assignment("CN(C)CCCNc1ccc2nnn3c4ccc(OC(=O)c5ccc([N+](=O)[O-])cc5)cc4c(=O)c1c23")
"inactive"
>>> class_assignment("O=C1C/C(=C/c2ccc(/C=C3/CC(=O)N(c4cccc(Br)c4)C3=O)cc2)C(=O)N1c1cccc(Br)c1")
"inactive"

[Q] Could you check what this test reported for `CCc1cccc(C)c1NC(=O)CCc1nnc(SC)o1` ?
[A] inactive

[Q] Could you check what this test reported for Cc1c2oc3c(C)ccc(C(=O)NC4C(=O)NC(C(C)C)C(=O)N5CC(=O)CC5C(=O)N(C)CC(=O)N(C)C(C(C)C)C(=O)OC4C)c3nc-2c(C(=O)NC2C(=O)NC(C(C)C)C(=O)N3CC(=O)CC3C(=O)N(C)CC(=O)N(C)C(C(C)C)C(=O)OC2C)c(N)c1=O (stereo not drawn) (I: TV[X48][Sar][NMeV] / II: TV[X48][Sar][NMeV]; ester I:1-I:C, II:1-II:C; linker I:N-II:N via Actinocin(9to1); configuration not given here) ?
[A] active

[Q] Could you check what this test reported for `COc1ccc([C@H]2[C@H](C)C3=Nc4ccccc4CN32)cc1` ?
[A] inactive

[Q] Could you check what this test reported for `C=Cc1c(C)c(O)cc2c1-c1ccc(O)c(C)c1CC2` ?
[A] inactive

[Q] Could you check what this test reported for `CC1(C)C(/C=N\O)=[N+]([O-])C(C)(C)N1O` ?
[A] inactive

###

Measured GI50, listed per entry.
# Tested on: SF-539
# assay name: NCI tumour cell line growth inhibition, 48 h
Counter-ions that a name gives are not always drawn. The source made the active and inactive calls. No stated cut-off is given here; in the data, active = GI50 up to about 1.1 µM and inactive = higher.

>>> observed_result("O=C1NCN(c2ccccc2)C12CCN(CCc1ccc3[nH]c(=S)[nH]c3c1)CC2")
"22.1 µM (inactive)"

GI50 of CCOC(=O)C1=CN=C2C(=O)N(c3ccccc3)N(C)C2(C)C1=N (configuration not stated) , assay on SF-539, is > 100 µM (inactive)

GI50 of COc1ccc2cc1Oc1ccc(cc1)C(Sc1ccccc1)CCOC(=O)CC2 (configuration not stated) , assay on SF-539, is > 100 µM (inactive)

GI50 of `O=C(c1ccco1)N(C(=O)N1CCN(c2ccccc2)CC1)S(=O)(=O)c1ccccc1` , assay on SF-539, is 19.1 µM (inactive)

GI50 of `CC(=O)NNc1ncc(C(=O)/C=C/c2ccccc2C)s1` , assay on SF-539, is > 100 µM (inactive)

GI50 of `CC(C)CS(=O)(=O)/C(=C(\c1ccc(Br)cc1)S(=O)(=O)CC(C)C)c1ccc(Br)cc1` , assay on SF-539, is > 100 µM (inactive)

GI50 of `C/C(CC1SCCCS1)=C(/C)CC1SCCCS1` , assay on SF-539, is > 100 µM (inactive)

GI50 of `COc1ccc(OC)c([N+](=O)[O-])c1-c1nc2sccn2c1/C=N/N=C(N)N` , assay on SF-539, is > 100 µM (inactive)

GI50 of COc1cc2c(cc1OC)C(C(CBr)CBr)N(C1CCCC1)CC2 (configuration not stated) , assay on SF-539, is > 100 µM (inactive)

GI50 of `CCN(CC)CCNC(=O)c1cn2c(ccc3sc4ccccc4c(=O)c32)n1` , assay on SF-539, is 10.8 µM (inactive)

GI50 of `CC(=O)O[C@H]1CC[C@@H](OC(C)=O)[C@H]2[C@H](O)[C@H](O)[C@@H]1n1c(=O)n(-c3ccccc3)c(=O)n12` , assay on SF-539, is > 100 µM (inactive)

GI50 of Cc1nccc2c1[nH]c1cc(O)ccc12 [HARMOL HYDROCHLORIDE] , assay on SF-539, is 73.3 µM (inactive)

GI50 of CC(=O)NC(CCC(=O)C=[N+]=[N-])C(=O)O (configuration not stated) , assay on SF-539, is > 100 µM (inactive)

GI50 of `COc1ccc(S(=O)(=O)O)cc1-n1nc(C(=O)Nc2ccccc2)n[n+]1-c1cc(S(=O)(=O)[O-])ccc1OC` , assay on SF-539, is > 100 µM (inactive)

GI50 of Nc1nc(Cl)c(N)c(NCC2(CO)CC(Cc3ccccc3)C2)n1 (configuration not stated) , assay on SF-539, is > 100 µM (inactive)

###

# System: SF-268
# assay name: NCI tumour cell line growth inhibition, 48 h
Calls of active or inactive are those of the source. No stated cut-off is given here; in the data, active = GI50 up to about 1.1 µM and inactive = higher.
attribute measured: GI50

Answered examples (8):
>>> observed_result("CC1[C@@]2(O[C@@H]3C=C4C5CCC6Cc7nc8c(nc7C[C@@]6(C)C5C[C@H](O)[C@@]4(C)[C@]13O)CC1CCc3c(cc4c5c3C(O)C[C@H]5[C@@H](C)C3(O4)OC(C)(C)CC3O)[C@]1(C)C8)O[C@@](C)(CO)C[C@@H]2O (stereo not given in full)")
"0.191 µM (active)"
>>> observed_result("C/N=C(N)/N=C(\\N)Nc1cc2ccccc2c2ccccc12")
"13.4 µM (inactive)"
>>> observed_result("C/C(N)=N/OCc1nc(C)no1")
"> 100 µM (inactive)"
>>> observed_result("O=C1OS2(OCc3cccc4cccc2c34)c2ccccc21 (stereo not given)")
"> 100 µM (inactive)"
>>> observed_result("N#Cc1c(N2CCC(O)C2)c2ccccc2n2c1nc1ccccc12 (stereo not given)")
"43.7 µM (inactive)"
>>> observed_result("COc1ccc2c(c1)CC1COc3cc(OC)ccc3C1O2 (stereo not given)")
"52.5 µM (inactive)"
>>> observed_result("CCN(CC)CC(O)C1CCC(c2ccccc2)CC1 (stereo not given)")
"31.6 µM (inactive)"
>>> observed_result("CC(=O)OCCOCNC(=S)N/N=C(\\C)c1ccco1")
"> 100 µM (inactive)"

Notebook: CC(C)C1C(=O)NC(CO)Cc2c[nH]c3c(C(c4c[nH]c5ccccc45)C(O)CO)ccc(c23)N1C (stereo not given) , GI50 read as > 100 µM (inactive)

Notebook: CC(C)(C)C(=O)OCC1CCC[N+]2(C)CCCCC12 (stereo not given) , GI50 read as > 100 µM (inactive)

###

Measured GI50, listed per entry.
# Tested on: HOP-92
# assay name: NCI tumour cell line growth inhibition, 48 h
The source made the active and inactive calls. Rule as the data show it: active = GI50 up to about 1.1 µM and inactive = higher.

Answered examples (5):
>>> observed_result("COP(=O)(OC)C(Cc1c[nH]c2ccccc12)NC(=O)OCc1ccccc1 (stereo unspecified)")
"> 100 µM (inactive)"
>>> observed_result("COc1ccc(C2=NN(C(=O)c3ccc(Cl)cc3)C(O)(c3cc(F)c(Cl)cc3Cl)C2)cc1 (stereo unspecified)")
"> 100 µM (inactive)"
>>> observed_result("COc1cc2c(cc1OC)C13CCN4CC5=CCOC(CC(=O)O)C(C5CC41)C3N2 (stereo unspecified)")
"78.3 µM (inactive)"
>>> observed_result("COc1cc(NCCC2CCCCN2)c2ncccc2c1 (stereo unspecified)")
"60.8 µM (inactive)"
>>> observed_result("O=C1C=C(Nc2ccc(Br)cc2)c2ccccc2/C1=N/O")
"17.6 µM (inactive)"

Notebook: `CC(=O)O[C@H]1CC[C@@H](OC(C)=O)[C@H]2[C@H](O)[C@H](O)[C@@H]1n1c(=O)n(-c3ccccc3)c(=O)n12` , GI50 read as > 100 µM (inactive)

Notebook: `O=C(NCCn1ccnn1)Nc1ccccc1` , GI50 read as > 100 µM (inactive)

Notebook: CN(C)C(Cc1c[nH]cn1)C(=O)N1CCCC1C(N)=O (stereo unspecified) , GI50 read as > 100 µM (inactive)

Notebook: `CCN(CC)CCNC(=O)c1cn2c(ccc3sc4ccccc4c(=O)c32)n1` , GI50 read as 8.91 µM (inactive)

Notebook: `SC1=Nc2ccccc2-c2nc(-c3cccc(Cl)c3)cc(-c3ccccc3)c2C1` , GI50 read as 1.09 µM (active)

Notebook: `CC(=O)c1ccc(-c2oc(-c3ccccc3)cc2-c2ccc3c(c2)OCO3)s1` , GI50 read as > 100 µM (inactive)

Notebook: O=c1[nH]c(=O)n(C2OC(CO)C(O)C2O)c2ccsc12 (stereo unspecified) , GI50 read as > 100 µM (inactive)

Notebook: `COc1ccccc1OCC(=N/NC(=O)c1ccncc1)/N=C/c1ccncc1` , GI50 read as 44 µM (inactive)

Notebook: O=C1CSC2(CC(/C=C/c3ccccc3[N+](=O)[O-])=NN2c2cccc(S(=O)(=O)O)c2)N1c1nc2ccccc2s1 (stereo unspecified) , GI50 read as 25.5 µM (inactive)

Notebook: `Cc1cc(C)c(N)c(CO)c1` , GI50 read as > 59.2 µM (inactive)

Notebook: `OC(C/C(=N\N=C(/CC(O)(C(F)(F)F)C(F)(F)F)c1ccccc1)c1ccccc1)(C(F)(F)F)C(F)(F)F` , GI50 read as > 10 µM (inactive)

Notebook: CC(C)/C=C1\CCC(CN2CCCC2)C1=O (stereo unspecified) , GI50 read as 17.5 µM (inactive)
